Target: CETP (Homo sapiens)
Sequence (P11597 18-493): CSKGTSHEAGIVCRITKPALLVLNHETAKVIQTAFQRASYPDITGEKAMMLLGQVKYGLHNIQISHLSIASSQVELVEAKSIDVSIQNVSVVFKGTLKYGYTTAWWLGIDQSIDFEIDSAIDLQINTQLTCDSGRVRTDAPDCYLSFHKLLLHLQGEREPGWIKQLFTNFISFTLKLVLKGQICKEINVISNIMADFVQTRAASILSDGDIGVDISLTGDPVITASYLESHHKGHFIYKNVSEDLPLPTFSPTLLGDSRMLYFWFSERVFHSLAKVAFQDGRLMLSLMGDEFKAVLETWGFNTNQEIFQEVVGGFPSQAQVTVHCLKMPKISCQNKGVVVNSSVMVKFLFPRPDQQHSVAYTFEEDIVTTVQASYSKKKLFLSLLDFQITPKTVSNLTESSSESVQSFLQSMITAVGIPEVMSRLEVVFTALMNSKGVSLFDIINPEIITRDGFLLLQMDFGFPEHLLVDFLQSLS
Assay: In vitro CETP activity inhibitory effect in whole plasma
Settings: plasma from healthy subjects containing [3H]CE-HDL3, incubated 4 hours at 37° C.; read-out: CETP activity inhibition in whole plasma IC50
Experimental: The fraction thus obtained was dialyzed against a PBS solution [10 mM Na2HPO4/10 mM NaH2PO4/0.15 M NaCl/1 mM EDTA (pH 7.4)]. Then, tritium-labeled cholesterol (10 nM) (50.3 Ci/mM) was dissolved in 95% ethanol and added gradually to the above HDL3 fraction under stirring. The solution was incubated for 18 hours at 37° C. […] After incubation, KBr was added and specific gravity was adjusted to d=1.21 g/ml. […] Based on the inhibition rate (%) of CETP activity, IC50 value of each sample was calculated.
Listed next: entries and their corresponding IC50.

>  <compound>
CC(C)CCC1(C(=O)Nc2ccccc2S)CCCCC1 [Example 11]

>  <scale unit>
µM

>  <IC50>
5

$$$$
>  <compound>
CC(C)(C)C(=O)Sc1cc(Cl)c(Cl)cc1NC(=O)[C@]12CCCC[C@@H]1CCC2 [Example 66-23]

>  <scale unit>
µM

>  <IC50>
13

$$$$
>  <compound>
CC(C)(C)C(=O)Sc1cc(Cl)c(Cl)cc1NC(=O)C1(C)CCCCC1 [Example 66-9]

>  <scale unit>
µM

>  <IC50>
9

$$$$
>  <compound>
Cc1ccc(S)c(NC(=O)C2(C)CCCCC2)c1 [Example 19-2]

>  <scale unit>
µM

>  <IC50>
33

$$$$
>  <compound>
CC(C)CCC1(C(=O)Nc2ccccc2SC(=O)C2CCN(C)CC2)CCCC1 [Example 25-65]

>  <scale unit>
µM

>  <IC50>
9

$$$$
